Reference source: patent US8710233B2

TEST_TARGET: VR1/TRPV1 receptor (Homo sapiens)
Sequence (Q8NER1 whole entry): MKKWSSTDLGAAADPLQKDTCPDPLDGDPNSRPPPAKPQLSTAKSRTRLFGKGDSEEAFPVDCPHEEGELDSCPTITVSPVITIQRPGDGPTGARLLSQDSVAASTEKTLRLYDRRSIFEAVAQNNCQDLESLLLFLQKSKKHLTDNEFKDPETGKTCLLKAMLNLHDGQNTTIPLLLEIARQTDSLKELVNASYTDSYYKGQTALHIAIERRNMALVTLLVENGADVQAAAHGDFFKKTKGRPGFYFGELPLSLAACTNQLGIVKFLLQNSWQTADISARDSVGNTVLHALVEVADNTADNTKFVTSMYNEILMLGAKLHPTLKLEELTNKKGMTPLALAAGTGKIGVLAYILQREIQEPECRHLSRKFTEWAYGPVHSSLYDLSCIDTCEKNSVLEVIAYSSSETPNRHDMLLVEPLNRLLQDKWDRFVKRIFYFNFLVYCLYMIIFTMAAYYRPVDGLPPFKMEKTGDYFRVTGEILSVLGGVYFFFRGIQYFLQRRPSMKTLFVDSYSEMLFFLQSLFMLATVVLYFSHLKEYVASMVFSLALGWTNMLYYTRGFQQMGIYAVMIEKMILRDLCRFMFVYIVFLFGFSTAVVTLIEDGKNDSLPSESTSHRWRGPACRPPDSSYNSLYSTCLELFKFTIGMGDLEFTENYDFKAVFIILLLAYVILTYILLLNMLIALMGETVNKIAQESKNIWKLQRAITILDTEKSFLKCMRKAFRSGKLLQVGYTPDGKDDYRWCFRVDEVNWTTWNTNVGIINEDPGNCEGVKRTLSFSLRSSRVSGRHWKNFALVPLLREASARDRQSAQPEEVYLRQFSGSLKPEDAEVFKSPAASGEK
ASSAY_EXPLANATION: IC50 (human) after pH stimulus
Format: cell-based
CONDITION_LABEL: @ 0.01 μM; read-out: inhibition in percent, IC50 (human) after pH stimulus
I'd be grateful if you could share measured inhibition at 0.01 µM for these entries.
One number for each entry, in %.

Recorded results for 6 compounds are shown here.
Cc1cc(C(C)C(=O)NCc2ccc(C(F)(F)F)nc2N2CCC(C)CC2)ccc1NS(C)(=O)=O (stereo not shown)
6
CC(C(=O)NCc1ccc(C(F)(F)F)cc1OC1CCCCC1)c1ccc(NS(C)(=O)=O)c(F)c1 (stereo not shown)
3
CC(C(=O)NCc1ccc(C(F)(F)F)nc1N1CCCCC1C)c1ccc(NS(C)(=O)=O)c(F)c1 (stereo not shown)
11
CC1CCCN(c2nc(C(F)(F)F)ccc2CNC(=O)C(C)c2ccc(NS(C)(=O)=O)c(F)c2)C1 (stereo not shown)
12
CC(C(=O)NCc1ccc(C(F)(F)F)nc1CCC(C)(C)C)c1ccc(NS(C)(=O)=O)c(F)c1 (stereo not shown)
4
CCCCCCOc1nc(C(F)(F)F)ccc1CNC(=O)C(C)c1ccc(NS(C)(=O)=O)c(C)c1 (stereo not shown)
11

Could you now consider this next compound?
(Q) Which measured inhibition at 0.01 µM value corresponds to CCCCOc1nc(C(F)(F)F)ccc1CNC(=O)C(C)c1ccc(NS(C)(=O)=O)c(C)c1 (stereo not shown) ?
(A) 15
